Tested on: Aspergillus fumigatus
protocol-text: Antifungal activity against Aspergillus fumigatus 231 after 48 hrs by broth microdilution method
Assay type: functional
test-conditions: Aspergillus fumigatus, 231, 48 h
Here the recorded MIC is given for each entry.

Guide cases for MIC, answers given:
>>> observed("O=[N+]([O-])c1cc(-c2nnn(CSc3nnnn3-c3ccccc3)n2)cc([N+](=O)[O-])c1")
"> 125 µM"
>>> observed("O=[N+]([O-])c1cc(-c2nnnn2Cc2ccccc2)cc([N+](=O)[O-])c1")
"> 500 µM"
>>> observed("COc1ccc(Cn2nnc(-c3cc([N+](=O)[O-])cc([N+](=O)[O-])c3)n2)cc1")
"> 500 µM"
>>> observed("COc1cccc(-n2nnnc2SCn2nnc(-c3cc([N+](=O)[O-])cc([N+](=O)[O-])c3)n2)c1")
"> 500 µM"
>>> observed("O=[N+]([O-])c1cc(-c2nnn(Cc3cccc(Br)c3)n2)cc([N+](=O)[O-])c1")
"> 500 µM"
>>> observed("CCCCCCCCCCCCn1nnc(-c2cc([N+](=O)[O-])cc([N+](=O)[O-])c2)n1")
"> 250 µM"

What does the record list as MIC for O=[N+]([O-])c1cc(-c2nnn(CSc3nnnn3-c3ccc(Cl)cc3)n2)cc([N+](=O)[O-])c1 ?
> 125 µM

Repeat for the following compound: COc1cccc(Cn2nnc(-c3cc([N+](=O)[O-])cc([N+](=O)[O-])c3)n2)c1
> 500 µM

Repeat for the following compound: O=[N+]([O-])c1cc(-c2nnn(Cc3ccc(F)cc3)n2)cc([N+](=O)[O-])c1
> 500 µM
